assay target: CCR2 (Homo sapiens, UniProt P41597)
Construct: (leukophoresis pack); host or cells: human peripheral blood mononuclear cells (PBMCs) from a normal human leukophoresis pack
Sequence (P41597 whole entry): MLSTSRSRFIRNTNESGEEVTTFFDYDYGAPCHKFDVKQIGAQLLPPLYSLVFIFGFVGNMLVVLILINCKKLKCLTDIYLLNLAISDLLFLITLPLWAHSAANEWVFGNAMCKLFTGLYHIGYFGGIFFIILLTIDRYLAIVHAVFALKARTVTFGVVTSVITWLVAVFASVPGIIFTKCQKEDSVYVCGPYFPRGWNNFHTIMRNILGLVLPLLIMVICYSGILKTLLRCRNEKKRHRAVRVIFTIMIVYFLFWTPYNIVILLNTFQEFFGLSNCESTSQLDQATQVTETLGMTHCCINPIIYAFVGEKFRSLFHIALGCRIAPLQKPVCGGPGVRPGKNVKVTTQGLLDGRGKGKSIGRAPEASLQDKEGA
measurement protocol: hCCR2 (125-I hMCP-1) small molecule binding assay on human PBMCs
run parameters: 125I-MCP-1, human PBMCs, 30 min preincubation; read-out: IC50 (nM) 30 min preinc
Measured IC50, listed per entry.
Express the result in nM but write the number alone.

1) CO[C@@H]1COCC[C@@H]1N[C@@H]1CC[C@@](C(=O)N2C[C@@H]3C[C@H]2CN3c2cc(C(F)(F)F)ccn2)(C(C)C)C1 = 6.72
2) CO[C@@H]1COCC[C@@H]1N[C@@H]1CC[C@@](C(=O)N2C[C@@H]3C[C@H]2CN3c2cncc(C(F)(F)F)n2)(C(C)C)C1 = 10.4
3) CO[C@@H]1COCC[C@@H]1N[C@@H]1CC[C@](CC(F)(F)F)(C(=O)N2C[C@@H]3C[C@H]2CN3c2cc(C(F)(F)F)cnn2)C1 = 82.9
4) CO[C@@H]1COCC[C@@H]1N[C@@H]1CC[C@](CC(F)(F)F)(C(=O)N2C[C@@H]3C[C@H]2CN3c2cc(C(F)(F)F)ccn2)C1 = 57.3
5) CO[C@@H]1COCC[C@@H]1N[C@@H]1CC[C@](C)(C(=O)N2C[C@@H]3C[C@H]2CN3c2cc(C(F)(F)F)ccn2)C1 = 30.7

Query block: Name the recorded IC50 of CC[C@]1(C(=O)N2C[C@@H]3C[C@H]2CN3c2cccc(C(F)(F)F)n2)CC[C@@H](N[C@H]2CCOC[C@H]2OC)C1 , assay system CCR2 (Homo sapiens, UniProt P41597).
Result block: 1.73
